yeast fitness (ln) for assorted variants
B1: tRNA (parent)
chain: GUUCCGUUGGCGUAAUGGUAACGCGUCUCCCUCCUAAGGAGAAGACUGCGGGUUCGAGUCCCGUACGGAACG

variants of: B1; assay: yeast fitness, log relative to wild type (ln ratio); higher = fitter; tRNA-Arg(CCU), competitive growth, 37 C, 1 M NaCl
property name: yeast fitness (ln)

mutation list	measured value
U2C G6U A43C C66U A69G A70U C71U	-0.479
U2C C27U A43C C46U C66A A70G C71U	-0.105
G6U C66U A69G A70G C71U	-0.293
U2G G6A A43C C66U A70G	-0.147
G1A U2G G6U C27U C66U A69G A70U C71U	-0.407
C46U C66U A69G A70U C71U	-0.332
C27U C66U A69G	-0.241
G1A G6A C66A A70U C71U	-0.163
G1A U2C G6U C66U A69G A70U	-0.244
U2G G6U A43C C66U A70G C71U	-0.397
U2G G6A C27U C71U	-0.156
G6A A43C A70U C71U	-0.266
G6A A43C C46U C66U A70U	-0.183
U2C A69G A70U C71U	-0.199
G6U A43C A69G C71U	-0.389
G1A U2G G6A A43C C66U A70U C71U	-0.443
C27U A43C C46U C66U A70U C71U	-0.333
G1A U2G C66U A69G C71U	-0.254
G1A U2G G6U C46U	-0.0886
G1A U2G C27U C46U	-0.0532
G1A U2G C27U A43C C66A A69G C71U	-0.297
U2G G6A C27U A43C C66U A69G A70U C71U	-0.434
